# test_protocol: Cmax in Sprague-Dawley rat at 10 mg/kg, po
# Format: ADME, organism-based
# Set-up: dose 10 mg/kg, route oral
# condition_info: Sprague-Dawley, in vivo
readout_label: Cmax (nM)

compound: CC(C)(COc1ccc(-c2cc(O)nc(N)n2)cc1C#N)C(=O)O
unit_abbreviation: nM
numeric_value: 6600

compound: COC(=O)C(C)(C)COc1ccc(-c2cc(=O)[nH]c(N)n2)cc1C#N
unit_abbreviation: nM
numeric_value: 40

I = CC(C)COc1ccc(-c2ccnc(N)n2)cc1C#N
II = N#Cc1cc(-c2cc(=O)[nH]c(N)n2)ccc1OCC1CCC(C(=O)O)CC1 (configuration not stated)
III = CC(C)COc1ccc(-c2cc(=O)[nH]cn2)cc1C#N
IV = CC(C)(C)COc1ccc(-c2cc(=O)[nH]c(N)n2)cc1C#N
INPUT: // ascending sort on recorded Cmax Returns: the labels listed in the requested order.
OUTPUT: II, IV, III, I
